Values from the RNAGym collection of RNA variant scans (doi:10.1093/nar/gkz1192)

B1: CPEB3 Ribozyme (parent)
chain: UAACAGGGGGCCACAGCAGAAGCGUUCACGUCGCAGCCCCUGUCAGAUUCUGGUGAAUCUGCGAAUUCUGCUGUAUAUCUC

Variants of: B1
Assay: self-cleavage, relative activity (ratio to wild type); higher = more cleavage; in vitro, sequencing
Consider the following variants and their measured self-cleavage readings.

# Variant, Measured
data = [
    ("A15U G19C", 0.17),
]

self-cleavage measured on C29U A35C = 0.25

Just so you know, measured self-cleavage for A13U U51G came out at 1.27

Memo: C11G U25C , reported self-cleavage: 0.22
